This section presents compounds with their documented Activity values.
# target desc: Cannabinoid receptor 2 (Mus musculus) (UniProt P47936)
# Sequence (P47936 whole entry): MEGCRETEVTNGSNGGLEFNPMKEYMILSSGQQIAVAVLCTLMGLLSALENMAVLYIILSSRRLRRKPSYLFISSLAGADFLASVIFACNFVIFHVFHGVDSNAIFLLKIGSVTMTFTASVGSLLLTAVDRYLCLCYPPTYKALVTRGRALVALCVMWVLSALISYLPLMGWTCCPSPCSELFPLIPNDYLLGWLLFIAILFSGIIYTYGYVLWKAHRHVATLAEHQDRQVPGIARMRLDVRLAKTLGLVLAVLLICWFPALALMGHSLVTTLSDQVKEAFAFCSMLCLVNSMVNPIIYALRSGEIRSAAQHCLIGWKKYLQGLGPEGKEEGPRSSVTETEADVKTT
# protocol details: Agonist activity at CB2 receptor in mouse spleen membranes at 1 uM after 2 hrs by [35S]GTP-gamma-S binding assay
# Type: functional, cell membranes
# test context: Membrane
// return numeric value only (unit: %, not printed)

Examples from the recorded data:
> print(dat)
                         structure.notation  unit.name  assay.result
1  CCCCCCC(C)(C)c1cc(O)c2c(c1)oc(=O)c1ccc(OC)cc12          %            50
2  CCCCCCC(C)(C)c1cc(O)c2c(c1)oc(=O)c1ccc(O)cc12          %            55
3  CCCCCCC(C)(C)c1cc(O)c2c(c1)OC(C)(C)c1ccc(OC)cc1-2          %            42

Consider the record given below.
// Activity value for Cc1c(C(=O)c2cccc3ccccc23)c2cccc3c2n1[C@H](CN1CCOCC1)CO3 : 56
